Reported Normalized DMPK Remaining values for a set of substances
- Tested on: DMPK
- Assay Summary: DMPK knockdown by transfected antisense oligonucleotides in DM1 C15 myotubes at 0.5 nM and 50 nM
- Format: cell-based
- Condition Details: 0.5 nM oligonucleotide, 72 hours, qPCR, relative to vehicle control = 1.00

substance="344 (UCUGCCGCAGGGACAGCCGC; chemistry not given here) [compound 344]" property_name="Normalized DMPK Remaining" assay_result=0.77
substance="352 (AAAUACCGAGGAAUGUCGGG; chemistry not given here) [compound 352]" property_name="Normalized DMPK Remaining" assay_result=0.89

input: Identify the reported Normalized DMPK Remaining for the following entry. 285 (AUCUCGGCCGGAAUCCGCUC; chemistry not given here) [compound 285]
output: 0.88

input: Identify the reported Normalized DMPK Remaining for the following entry. 366 (UUUGGGCAGAUGGAGGGCCU; chemistry not given here) [compound 366]
output: 0.65

input: Identify the reported Normalized DMPK Remaining for the following entry. 329 (UACACCUGGCCCGUCUGCUU; chemistry not given here) [compound 329]
output: 0.69

input: Identify the reported Normalized DMPK Remaining for the following entry. 363 (CAUGACCAGGUACAGGUAGU; chemistry not given here) [compound 363]
output: 0.81

input: Identify the reported Normalized DMPK Remaining for the following entry. 257 (CAUGGCAUACACCUGGCCCG; chemistry not given here) [compound 257]
output: 0.68

input: Identify the reported Normalized DMPK Remaining for the following entry. 368 (CAGCAGUGUCAGCAGGUCCC; chemistry not given here) [compound 368]
output: 0.74

input: Identify the reported Normalized DMPK Remaining for the following entry. 356 (CUGCCUGCAGCAACUCCAUC; chemistry not given here) [compound 356]
output: 0.77

input: Identify the reported Normalized DMPK Remaining for the following entry. 337 (GUUUGCCCAUCCACGUCAGG; chemistry not given here) [compound 337]
output: 0.66

input: Identify the reported Normalized DMPK Remaining for the following entry. 287 (GCCAUCUCGGCCGGAAUCCG; chemistry not given here) [compound 287]
output: 0.81

input: Identify the reported Normalized DMPK Remaining for the following entry. 280 (UUGCCAUAGGUCUCCGCCGU; chemistry not given here) [compound 280]
output: 0.64

input: Identify the reported Normalized DMPK Remaining for the following entry. 284 (CACGUAAUACUCCAUGACCA; chemistry not given here) [compound 284]
output: 0.76

input: Identify the reported Normalized DMPK Remaining for the following entry. 301 (UGUUGUCGGGUUUGAUGUCC; chemistry not given here) [compound 301]
output: 0.79

input: Identify the reported Normalized DMPK Remaining for the following entry. 375 (CGGCUCAGGCUCUGCCGGGU; chemistry not given here) [compound 375]
output: 0.82

input: Identify the reported Normalized DMPK Remaining for the following entry. 367 (GAUGUCCCUGUGCACGUAGC; chemistry not given here) [compound 367]
output: 0.81

input: Identify the reported Normalized DMPK Remaining for the following entry. 299 (GCAGGAUGUUGUCGGGUUUG; chemistry not given here) [compound 299]
output: 0.56

* * *

- Tested on: DMPK
- Assay Summary: DMPK knockdown by transfected antisense oligonucleotides in DM1 C15 myotubes at 0.5 nM and 50 nM
- Format: cell-based
- Condition Details: 0.5 nM oligonucleotide, 72 hours, qPCR, relative to vehicle control = 1.00
Property Name: Normalized DMPK Remaining

input: Specify Normalized DMPK Remaining for 288 (CAGGGACAGCCGCUGGAACU; chemistry not given here) [compound 288] , system DMPK.
output: 0.68

input: Specify Normalized DMPK Remaining for 370 (ACUUGUUCAUGAUCUUCAUG; chemistry not given here) [compound 370] , system DMPK.
output: 0.75

input: Specify Normalized DMPK Remaining for 335 (UCCCCAAACUUGCUCAGCAG; chemistry not given here) [compound 335] , system DMPK.
output: 0.94

input: Specify Normalized DMPK Remaining for 336 (GAUGUUGUCGGGUUUGAUGU; chemistry not given here) [compound 336] , system DMPK.
output: 0.90

* * *

- System: DMPK
- Assay Summary: DMPK knockdown by transfected antisense oligonucleotides in DM1 C15 myotubes at 0.5 nM and 50 nM
- Assay type: cell-based
- Condition Details: 0.5 nM oligonucleotide, 72 hours, qPCR, relative to vehicle control
Reported Percent DMPK Reduction values for a set of substances
Please give a number only; it is taken to be in %.

Use these answered entries as a reference point.
substance="302 (CCACGUAAUACUCCAUGACC; chemistry not given here) [compound 302]" assay_result=20.84
substance="293 (GAAUGUCCGACAGUGUCUCC; chemistry not given here) [compound 293]" assay_result=30.09
substance="356 (CUGCCUGCAGCAACUCCAUC; chemistry not given here) [compound 356]" assay_result=23.10
substance="311 (CUCAGCCUCUGCCGCAGGGA; chemistry not given here) [compound 311]" assay_result=17.86

input: Identify the reported Percent DMPK Reduction for the following entry. 265 (GUCGGGUUUGAUGUCCCUGU; chemistry not given here) [compound 265]
output: 28.89

input: Identify the reported Percent DMPK Reduction for the following entry. 334 (CCAUGACAAUCUCCGCCAGG; chemistry not given here) [compound 334]
output: 34.53

input: Identify the reported Percent DMPK Reduction for the following entry. 353 (GGCGAAUACACCCAGCGCCC; chemistry not given here) [compound 353]
output: 19.77

input: Identify the reported Percent DMPK Reduction for the following entry. 270 (GGGCCUGGGACCUCACUGUC; chemistry not given here) [compound 270]
output: 37.19

* * *

Reported Percent DMPK Reduction values for a set of substances
- Tested on: DMPK
- Assay Summary: DMPK knockdown by transfected antisense oligonucleotides in DM1 C15 myotubes at 0.5 nM and 50 nM
- Assay type: cell-based
- Condition Details: 0.5 nM oligonucleotide, 72 hours
Answer shape: numeric part, then the unit.

Use these answered entries as a reference point.
substance="389 (CCGAGAGCAGCGCAAGUGAG; chemistry not given here) [compound 389]" assay_result=16.13%
substance="462 (UCUGCCUCGCGUAGUGACU; chemistry not given here) [compound 462]" assay_result=3.53%
substance="434 (UUUCAUAGGCGAAUACACCC; chemistry not given here) [compound 434]" assay_result=5.56%

input: Identify the reported Percent DMPK Reduction for the following entry. 437 (CAUCCGCUCCUGCAACUGCC; chemistry not given here) [compound 437]
output: 21.04%

input: Identify the reported Percent DMPK Reduction for the following entry. 440 (CAGGAGCAGGGAAAGCGCCU; chemistry not given here) [compound 440]
output: 12.48%

input: Identify the reported Percent DMPK Reduction for the following entry. 403 (UCUCCGCCAGGUAGAAGCGC; chemistry not given here) [compound 403]
output: 19.59%

input: Identify the reported Percent DMPK Reduction for the following entry. 451 (CAGGAUGUUGUCGGGUUUGA; chemistry not given here) [compound 451]
output: 17.17%

input: Identify the reported Percent DMPK Reduction for the following entry. 384 (UGGACGAUCUUGCCAUAGGU; chemistry not given here) [compound 384]
output: 19.20%

* * *

- System: DMPK
- Assay Summary: DMPK knockdown by transfected antisense oligonucleotides in DM1 C15 myotubes at 0.5 nM and 50 nM
- Format: cell-based
- Condition Details: 0.5 nM oligonucleotide, 72 hours, qPCR, relative to vehicle control
I'd appreciate it if you marked entries True when Percent DMPK Reduction is lower than 30% and False when it is not.

Some solved entries appear below for comparison.
substance="304 (UUCCCGAGUAAGCAGGCAGA; chemistry not given here) [compound 304]" discrete_label=False
substance="306 (AGGGACAGCCGCUGGAACTG; chemistry not given here) [compound 306]" discrete_label=True
substance="320 (CCCAGCGCCCACCAGUCACA; chemistry not given here) [compound 320]" discrete_label=False
substance="325 (GGUAGUUCUCAUCCUGGAAG; chemistry not given here) [compound 325]" discrete_label=True
substance="307 (GGGUUUGAUGUCCCUGUGCA; chemistry not given here) [compound 307]" discrete_label=False
substance="355 (CCCGUCUGCUUCAUCUUCAC; chemistry not given here) [compound 355]" discrete_label=True
substance="351 (UGAUGUCCCUGUGCACGUAG; chemistry not given here) [compound 351]" discrete_label=True

Now look at this entry.
input: Answer whether the substance 290 (GGCCAUGACAAUCUCCGCCA; chemistry not given here) [compound 290] has Percent DMPK Reduction strictly less than 30%
output: False

* * *

- Test system: DMPK
- Assay Summary: DMPK knockdown by transfected antisense oligonucleotides in DM1 C15 myotubes at 0.5 nM and 50 nM
- Assay type: cell-based
- Condition Details: 50 nM oligonucleotide, 72 hours, qPCR, relative to vehicle control = 1.00
Reported Normalized DMPK Remaining values for a set of substances
Enter the number alone.

substance="302 (CCACGUAAUACUCCAUGACC; chemistry not given here) [compound 302]" assay_system=DMPK assay_result=0.50
substance="289 (AUGACAAUCUCCGCCAGGUA; chemistry not given here) [compound 289]" assay_system=DMPK assay_result=0.40
substance="250 (CGGAUGGCCUCCAUCUCCCG; chemistry not given here) [compound 250]" assay_system=DMPK assay_result=0.44
substance="309 (CACAGCGGUCCAGCAGGAUG; chemistry not given here) [compound 309]" assay_system=DMPK assay_result=0.40
substance="310 (GCGUAGAAGGGCGUCUGCCC; chemistry not given here) [compound 310]" assay_system=DMPK assay_result=0.22
substance="307 (GGGUUUGAUGUCCCUGUGCA; chemistry not given here) [compound 307]" assay_system=DMPK assay_result=0.37

Now consider a different substance.
input: Specify Normalized DMPK Remaining for 300 (GGCCUCAGCCUCUGCCGCAG; chemistry not given here) [compound 300] , system DMPK.
output: 0.29
